Tested on: CP211
Assay: qHTS profiling for inhibitors of Plasmodium falciparum proliferation (AID 504749); further: nearly all actives have a fitted effect of over 60% in size
Settings: P. falciparum in erythrocytes, SYBR Green DNA, 72 h; series mostly up to 28.7 µM
Inconclusive results are not listed. Activity calls are given as the source filed them. The call rests on the fitted dose curve; in most records, active means well fitted inhibition curve with a large enough effect; inconclusive means small, poorly fitted or top-dose-only effect; inactive means flat fitted curve, though single readings scatter.
Select the matching outcome among active, inactive

How was "Cn1sc(Cl)cc1=O" classified in this test?
inactive

For CNC1(c2ccccc2Cl)CCCCC1=O (centres undefined) , what call appears in the results of this test?
inactive

Per the assay record, what outcome was assigned to CCCC(C)(COC(N)=O)COC(=O)NC1CC1 (centres undefined) ?
inactive

Field: outcome | Entry: "O=C1CN(O)C(c2ccccc2)=c2cc(Cl)ccc2=N1"
inactive

Per the assay record, what outcome was assigned to "Clc1ccc(Cl)cc1" ?
inactive

Hi team, can someone confirm the assay call for "CC(C)Nc1ccc(Nc2ccccc2)cc1" ?
active

# fetch the recorded call for COc1ccc(OC)c(C(O)C(C)N)c1 (centres undefined) here
inactive

Could you kindly confirm the outcome this assay logged for "CC(C)CCON=O" ?
inactive

Would you mind telling me which call this test gave C=CCN1CCC23c4c5ccc(O)c4O[C@H]2C(=O)CC[C@@]3(O)C1C5 (some centres undefined) ?
inactive

Hey, what did the test say about O=C(CS(=O)C(c1ccccc1)c1ccccc1)NO (centres undefined) ?
inactive

Answer briefly: the call reported for "C=CCN(C1=NCCN1)c1c(Cl)cccc1Cl" in this assay.
inactive

Can you look up the reported call for "O=P(O)(O)C(Cl)(Cl)P(=O)(O)O" for me?
inactive

Identify the outcome logged in this assay for the compound shown: "c1csc(C2(N3CCCCC3)CCCCC2)c1"
inactive

Returns: the outcome recorded for O=C1CC[C@@]2(O)C3Cc4ccc(O)c5c4C2(CCN3CC2CC2)[C@H]1O5 (some centres undefined) in this assay.
inactive

====

Test: qHTS for Inhibitors of ATXN expression: Validation of Cytotoxic Assay (AID 588349);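 further: cells exposed to compound for 72 hr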
Settings: cytotoxicity counter-screen for ATXN expression inhibitors, cell viability; series mostly up to 57.1 µM
Inconclusive results are not listed. Activity calls are given as the source filed them. Calls come from the whole dose curve; as a rule, active = well fitted cell-killing curve with a large enough effect; inconclusive = small, poorly fitted or top-dose-only effect, or effect the other way; inactive = flat fitted curve, though single readings scatter.
readout: outcome

Example cases with answers are listed next.
>  <molecule>
COc1ccc(OC)c(C(O)C(C)N)c1 (stereo not drawn)

>  <readout>
outcome

>  <result>
inactive

$$$$
>  <molecule>
COc1ccc2c(c1)C13CCCCC1C(C2)N(C)CC3 (stereo not drawn)

>  <readout>
outcome

>  <result>
inactive

$$$$
>  <molecule>
CC12NC(Cc3ccccc31)c1ccccc12 (stereo not drawn)

>  <readout>
outcome

>  <result>
inactive

$$$$
>  <molecule>
CCCN1CC[C@@H]2c3cc(O)ccc3CC[C@@H]21

>  <readout>
outcome

>  <result>
inactive

$$$$
>  <molecule>
CC(N)[C@H](O)c1ccc(O)c(O)c1 (stereo partly drawn)

>  <readout>
outcome

>  <result>
inactive

$$$$

Return reported outcome; argument: "N[C@@H](CCl)C(=O)O"
inactive

Given "CN1CCc2cccc(Cl)c2CC1" , state its recorded outcome.
inactive

Tell me the measured outcome of "CCN(CCCl)Cc1ccccc1Br" , please.
inactive

Entry under review: "c1ccc2cc(CC3=NCCN3)ccc2c1" . Reported outcome?
inactive

I am curious: what outcome value has been reported for "CCCN(CCC)[C@H]1CCc2c(F)ccc(O)c2C1" ?
inactive

Reported outcome, molecule "C=CCN1C[C@@H](C)N([C@H](c2ccc(C(=O)N(CC)CC)cc2)c2cccc(OC)c2)C[C@@H]1C" : ____
inactive

Given the entry "CC(C)NP(=O)(NC(C)C)OP(=O)(NC(C)C)NC(C)C" , report its measured outcome.
inactive

Which value of outcome has been reported for "NC(=O)CI" in the records?
inactive
